System: Fibroblast
Assay method text: Incucyte cell viability with human fibroblast; further: unitless GR value; below 1 slowed growth and below 0 cell loss
Type: toxicity, cell-based
Assay conditions: 24 h, 10 µM, compound concentration 10 uM, replicate number 1
Measured Growth Rate values are reported for all entries that follow.
Answer using only a numeral; do not append any unit.

// solved cases for Growth Rate follow
INSERT INTO measurements (smiles_input, result_type, quantitative_readout) VALUES
  ('C[C@H]1CCCN1Cc1nc2cc(NC(=O)c3ccc4c(cnn4C)c3)ccc2[nH]1', 'Growth Rate', 1),
  ('O=C(NCC1CCOCC1)c1n[nH]cc1NC(=O)c1c(F)cccc1F', 'Growth Rate', -0.35),
  ('CC(=O)Nc1ccc(OC[C@](C)(O)C(=O)Nc2ccc([N+](=O)[O-])c(C(F)(F)F)c2)cc1', 'Growth Rate', 0.07);

Entry O=C1/C(=N/Nc2ccc(S(=O)(=O)O)cc2)C(c2ccc([N+](=O)[O-])cc2)=NN1c1ccccc1 — recorded Growth Rate = 1

Lab note: measured Growth Rate of Cc1ccc(N2C(=O)/C(=C/C=C/c3ccco3)C(=O)NC2=S)cc1Cl was 0.45

The recorded Growth Rate for Oc1ccc(-c2c(-c3ccccc3)nn3c(C(F)(F)F)cc(C(F)(F)F)nc23)cc1 is 1

Growth Rate recorded for this molecule, CN1CCN(c2nc(-c3ccc(C(=O)NC4(C(=O)NCC#N)CCCCC4)cc3)cs2)CC1 , is 0.74

Lookup result for CC(C)c1cnc(CSc2cnc(NC(=O)C3CCNCC3)s2)o1 ; measured Growth Rate: -0.05

Recorded result, Cc1ccc(F)c2cc(C(=O)N[C@@H]3CCC[C@H](N4CC[C@H](N(C)S(C)(=O)=O)C4)C3)[nH]c12 , Growth Rate: 1

====

Growth Rate: recorded values
Tested on: HEK-293T
Assay method text: Incucyte cell viability with HEK293T; further: unitless GR value; below 1 slowed growth and below 0 cell loss
Type: toxicity, cell-based
Assay conditions: human, 24 h, 10 µM, compound concentration 10 uM, replicate number 1
Peptide text beside a SMILES is read from it. * marks the point of attachment. Boc = CC(C)(C)OC(=O)*
Quick one: just the number, no unit, thanks!

Reference set, count: 10
INSERT INTO results (molecule, quantitative_readout) VALUES
  ('CC(C)(CNC(=O)c1cccc(-c2noc(C(F)(F)F)n2)c1)c1coc(-c2ccccc2)n1', 0.69),
  ('COc1nc(Nc2cc(S(C)(=O)=O)ccc2N[C@@H](c2cccc3c2OC(F)(F)O3)c2ncccc2Cl)nc(N2CCNCC2)n1', -0.57),
  ('CN(C)Cc1ccc(S(=O)(=O)n2ccc(/C=C/C(=O)NO)c2)cc1.Cl', 0.53),
  ('Cc1ncsc1-c1ccc(CNC(=O)[C@@H]2C[C@@H](O)CN2C(=O)[C@@H](NC(=O)COCCOCCOCCNC(=O)C[C@@H]2N=C(c3ccc(Cl)cc3)c3c(sc(C)c3C)-n3c(C)nnc32)C(C)(C)C)cc1', 0.01),
  ('CC(=O)OCCN1C(=O)c2c(C)nc3ccc(S(=O)(=O)N4CCOCC4)cc3c2C1=O', 0.92),
  ('CNC(=O)Cn1cc(-c2ccc3c(c2)[C@H](F)C[C@]32NC(=O)N(CC(=O)N(Cc3ccc(F)cc3)[C@@H](C)C(F)(F)F)C2=O)cn1', -0.53),
  ('CNC(=O)N1CCc2c(c(N3CCCc4cc(-c5cnn(C)c5)c(C(F)F)cc43)nn2C2CCOCC2)C1', 0.56),
  ('COc1cccc(-c2nccc3c2CN(c2ccccc2)C3=O)c1', 0.75),
  ('N#C[C@@H]1CCCN1C(=O)[C@@H]1CCCN1C(=O)CCCc1ccccc1', 0.6),
  ('CCCC(NC(=O)C(CC(C)C)NC(=O)OCc1ccccc1)C(=O)C(=O)NCc1ccccn1 (racemic)', 0.78);

Turning to the following molecule.
Record CC(C)[C@H](NC(=O)[C@H](CCC(=O)O)NC(=O)[C@H](C)NC(=O)OC(C)(C)C)C(=O)N[C@H](C=O)CC(=O)O.O=C(O)C(F)(F)F (Boc-AEVD-aldehyde) . Reported Growth Rate: 0.66

====

Reported values of Growth Rate for individual entries
Tested on: Fibroblast
Assay method text: Incucyte cell viability with human fibroblast; further: unitless GR value; below 1 slowed growth and below 0 cell loss
Type: toxicity, cell-based
Assay conditions: 24 h, 10 µM, compound concentration 10 uM, replicate number 1
Peptide text beside a SMILES is read from it.
Number only, no unit.

INSERT INTO results (compound, quantitative_readout) VALUES
  ('CC(=O)N[C@@H](CC(C)C)C(=O)N[C@@H](CCC(=O)O)C(=O)N[C@H](C(=O)N[C@H](C=O)CC(=O)O)C(C)C (Ac-LEVD-aldehyde)', 0.82);

For record CCCC(NC(=O)C(CC(C)C)NC(=O)OCc1ccccc1)C(=O)C(=O)NCc1ccccn1 (racemic) the listed Growth Rate is 0.96

Form: compound = CC(C)(C)OC(=O)Nc1ccc(-c2cc(C(=O)NCCCCCCC(=O)NO)no2)cc1 ; Growth Rate = 1

Cc1ncsc1-c1ccc([C@H](C)NC(=O)[C@@H]2C[C@@H](O)CN2C(=O)[C@@H](NC(=O)COCCCOCCNC(=O)C[C@@H]2N=C(c3ccc(Cl)cc3)c3c(sc(C)c3C)-n3c(C)nnc32)C(C)(C)C)cc1 yielded Growth Rate of -0.26

What the record says about C[C@]12CC[C@@H]3c4ccc(O)cc4C[C@@H](CCCCCCCCC[S+]([O-])CCCC(F)(F)C(F)(F)F)[C@H]3[C@@H]1CC[C@@H]2O (some centres not stated) [FULVESTRANT] : Growth Rate is 1

Sure, the documented Growth Rate for CC(C)NCC(O)COC(Cn1c2ccccc2c2ccccc21)Cn1c2ccccc2c2ccccc21 (configuration not stated) is 1

In plain terms, Nc1ccccc1NC(=O)c1ccc(CNc2nccc(-c3cccnc3)n2)cc1 [MOCETINOSTAT] has a documented Growth Rate of 1

====

Each entry below lists one item and its recorded Growth Rate value.
System: U2OS
Assay method text: Incucyte cell viability with U2OS; further: unitless GR value; below 1 slowed growth and below 0 cell loss
Format: toxicity, cell-based
Assay conditions: human, 24 h, 10 µM, compound concentration 10 uM, replicate number 1

Below, each entry is followed by its recorded Growth Rate result.
INSERT INTO results (molecule, result_type, result) VALUES
  ('CNC(=O)Cn1cc(-c2ccc3c(c2)[C@H](F)C[C@]32NC(=O)N(CC(=O)N(Cc3ccc(F)cc3)[C@@H](C)C(F)(F)F)C2=O)cn1', 'Growth Rate', -0.12),
  ('CCN(CCN(C)C)C(=O)CNCc1cc(C(N)=O)ccn1.Cl.O', 'Growth Rate', 0.89);

Item: CCc1ccccc1NC(=O)CSC(=O)NNC(=O)[C@H](Cc1c[nH]c2ccccc12)NC(=O)OC(C)(C)C | Growth Rate: 1

Lab note: Cc1cc(C)cc(Oc2ccc(CNC(=O)[C@H](C)N)cc2C)c1.Cl gave Growth Rate of 0.69

Per the records, this molecule ( COc1cc(-c2cn(C)c(=O)c3cnccc23)cc(OC)c1CN(C)CC(=O)NCCOCCOCCNc1cccc2c1C(=O)N(C1CCC(=O)NC1=O)C2=O (configuration not stated) ) has Growth Rate equal to 0.78

The molecule identified as CC1=NN(c2ccc(C(=O)O)cc2)C(=O)/C1=C/c1ccc(-c2cc(C)c(C)cc2[N+](=O)[O-])o1 registered its Growth Rate at 0.18

Form field Growth Rate, entry O=C1/C(=N/Nc2ccc(S(=O)(=O)O)cc2)C(c2ccc([N+](=O)[O-])cc2)=NN1c1ccccc1 : 0.88

====

Quick reference: Growth Rate of the listed items.
Tested on: HEK-293T
Assay method text: Incucyte cell viability with HEK293T; further: unitless GR value; below 1 slowed growth and below 0 cell loss
Type: toxicity, cell-based
Assay conditions: human, 24 h, 10 µM, compound concentration 10 uM, replicate number 2

Sure, the documented Growth Rate for O=C(CCCCCCC(=O)Nc1ccc([C@H]2O[C@@H](CSc3nc(-c4ccccc4)c(-c4ccccc4)o3)C[C@@H](c3ccc(CO)cc3)O2)cc1)NO is 1

====

Tested on: HEK-293T
Assay method text: Incucyte cell viability with HEK293T; further: unitless GR value; below 1 slowed growth and below 0 cell loss
Assay type: toxicity, cell-based
Assay conditions: human, 24 h, 10 µM, compound concentration 10 uM, replicate number 1
List of Growth Rate values.
# output: bare number, no unit

INSERT INTO results (compound, result_type, quantitative_readout) VALUES
  ('COc1cc(C)[nH]c(=O)c1CNC(=O)c1c(C)n([C@H](C)C2CCN(CC(F)(F)F)CC2)c2ccccc12', 'Growth Rate', 0.61),
  ('O=C(NCC1(c2nc(-c3ccccc3)cs2)CCOCC1)c1cccc(-c2noc(C(F)(F)F)n2)c1', 'Growth Rate', 0.36);

GET /values?item= CCCCN(Cc1ccc(C(=O)NO)cc1)C(=O)Nc1ccccc1 &system= HEK-293T returns Growth Rate: 1

The compound CC(C)N(CCCNC(=O)Nc1ccc(C(C)(C)C)cc1)C[C@H]1O[C@@H](n2ccc3c(N)ncnc32)[C@H](O)[C@@H]1O , tested on HEK-293T, showed Growth Rate of 0.74
